Target: SIRT1 (Homo sapiens)
Construct: Human SIRT1 (183-505-(GGGS)2-641-665); His6 with sumo-cleavage site (N); made in house; host or cells: E. coli BL21
Sequence (Q96EB6 with tags, fused parts or gaps): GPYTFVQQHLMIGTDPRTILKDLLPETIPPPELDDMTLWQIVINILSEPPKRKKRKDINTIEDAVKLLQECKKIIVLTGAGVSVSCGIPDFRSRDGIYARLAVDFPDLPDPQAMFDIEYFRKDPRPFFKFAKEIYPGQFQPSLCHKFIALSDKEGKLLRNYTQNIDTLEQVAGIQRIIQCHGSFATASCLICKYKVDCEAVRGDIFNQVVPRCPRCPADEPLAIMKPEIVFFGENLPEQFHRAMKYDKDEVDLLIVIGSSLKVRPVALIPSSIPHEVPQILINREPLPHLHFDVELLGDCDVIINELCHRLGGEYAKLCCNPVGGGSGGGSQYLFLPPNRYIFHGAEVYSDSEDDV
Assay: Fluorescent deacetylation assay, SIRT1
Type: biochemical
Details: 0.8 μM SIRT1, 10 μM acetyl-peptide, 1.2 mM NAD+
Procedure: All compounds were dissolved in 10 mM stock solution in DMSO. […] The fluorescence was measured using a microplate reader (SpectraMax M5, Molecular Devices, San Jose, CA, USA) with excitation at 320 nm and emission at 420 nm. All reactions were done in triplicate. IC50 were determined for other sirtuins using the same assay as for SIRT3.
Checkbox rule: IC50 lower than 0.4 µM = 1.0; IC50 not lower than 0.4 µM = 0.0.

Ask: Please let me know if CCn1c(=O)n(CCc2ccc(N)cc2)c(=O)c2[nH]c(SSc3nc4c([nH]3)c(=O)n(CCc3ccc(N)cc3)c(=O)n4CC)nc21 [Compound 20] shows IC50 below 0.4 µM.
Reply: 0.0

Ask: Please let me know if CCn1c(=O)n(CCC(=O)Nc2cccc(C(F)(F)F)c2)c(=O)c2[nH]c(SSc3nc4c([nH]3)c(=O)n(CCC(=O)Nc3cccc(C(F)(F)F)c3)c(=O)n4CC)nc21 [Compound 19] shows IC50 below 0.4 µM.
Reply: 0.0

Ask: Please let me know if CCn1c(=O)n(CCc2ccc(F)cc2)c(=O)c2[nH]c(SSc3nc4c([nH]3)c(=O)n(CCc3ccc(F)cc3)c(=O)n4CC)nc21 [Compound 16] shows IC50 below 0.4 µM.
Reply: 1.0

Ask: Please let me know if CCn1c(=O)n(CC(C)C)c(=O)c2[nH]c(SSc3nc4c([nH]3)c(=O)n(CC(C)C)c(=O)n4CC)nc21 [Compound 12] shows IC50 below 0.4 µM.
Reply: 0.0

Ask: Please let me know if CCn1c(=O)n(CC2CCCO2)c(=O)c2[nH]c(SSc3nc4c([nH]3)c(=O)n(CC3CCCO3)c(=O)n4CC)nc21 (stereo not drawn) [Compound 14] shows IC50 below 0.4 µM.
Reply: 1.0
